Biological target: Human BCL-XL protein (N-terminal HiBiT tagged BCL-XL in HT1080 cells) (Homo sapiens, UniProt Q07817)
Construct: expressed in transfected cells; host or cells: HT-1080 (ATCC CCL-121), stably transduced with lentivirus pLV-UBC-N-HiBiT-BCL-XL-PGK-puro and selected with puromycin
Sequence (Q07817 whole entry): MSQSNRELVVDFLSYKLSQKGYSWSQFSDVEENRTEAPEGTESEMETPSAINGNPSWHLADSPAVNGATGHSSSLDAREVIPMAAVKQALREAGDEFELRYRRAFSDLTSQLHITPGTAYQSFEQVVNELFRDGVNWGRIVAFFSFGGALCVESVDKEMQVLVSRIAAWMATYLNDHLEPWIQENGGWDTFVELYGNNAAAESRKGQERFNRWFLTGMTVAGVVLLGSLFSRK
Experiment: HiBiT based degradation assay
Type: cell-based
Settings: BCL-XL degradation normalized with DMSO control; HT1080 cells expressing HiBiT-BCL-XL; 6 h
Quantity Kind: Ymin (6 h)

Sample answers from the record:
Cc1c(-c2ccc(N3CCc4cccc(C(=O)Nc5nc6ccccc6s5)c4C3)nc2C(=O)NCC(=O)Nc2ccc3c(C4CCC(=O)NC4=O)nn(C)c3c2)cnn1Cc1ccccc1 (centres unmarked) [Compound 135]	B (50% ≤ Ymin < 70%)
Cc1c(-c2ccc(N3CCc4cccc(C(=O)Nc5nc6ccccc6s5)c4C3)nc2C(=O)NCCCCCCCCCC(=O)Nc2cccc3c(C4CCC(=O)NC4=O)nn(C)c23)cnn1CC12CC3CC(CC(C3)C1)C2 (centres unmarked) [Compound 109]	B (50% ≤ Ymin < 70%)
Cc1cc(OCCCN2C[C@@H](C)N(CC(=O)N3CCN(c4ccc5c(C6CCC(=O)NC6=O)nn(C)c5c4)CC3)[C@@H](C)C2)ccc1-c1ccc(N2CCc3cccc(C(=O)Nc4nc5ccccc5s4)c3C2)nc1C(=O)O (some centres unmarked) [Compound 154a]	A (Ymin < 50%)
Cc1c(O[C@H](C)CCC2CCN(CC(=O)Nc3cccc4c(C5CCC(=O)NC5=O)nn(C)c34)CC2)cccc1-c1ccc(N2CCc3cccc(C(=O)Nc4nc5ccccc5s4)c3C2)nc1C(=O)O (some centres unmarked) [Compound 169b]	C (Ymin ≥ 70%)
Cc1c(OCCCC2CCN(CC(=O)N3CCN(c4cccc5c(C6CCC(=O)NC6=O)nn(C)c45)CC3)CC2)cccc1-c1ccc(N2CCc3cccc(C(=O)Nc4nc5ccccc5s4)c3C2)nc1C(=O)O (centres unmarked) [Compound 144]	A (Ymin < 50%)

Name the recorded Ymin (6 h) of the molecule listed here: Cc1c(OCCCCCCCN2CCN(c3ccc4c(C5CCC(=O)NC5=O)nn(C)c4c3)CC2)cccc1-c1ccc(N2CCc3cccc(C(=O)Nc4nc5ccccc5s4)c3C2)nc1C(=O)O (centres unmarked) [Compound 137] B (50% ≤ Ymin < 70%)

Name the recorded Ymin (6 h) of the molecule listed here: Cc1c(O[C@H]2CC[C@H](CCCN3CCN(c4ccc5c(C6CCC(=O)NC6=O)nn(C)c5c4)CC3)CC2)cccc1-c1ccc(N2CCc3cccc(C(=O)Nc4nc5ccccc5s4)c3C2)nc1C(=O)O (some centres unmarked) [Compound 148a] B (50% ≤ Ymin < 70%)

Name the recorded Ymin (6 h) of the molecule listed here: Cc1c(Oc2ccc(CCC(=O)Nc3ccc(C4CCC(=O)NC4=O)cc3)cc2)cccc1-c1ccc(N2CCc3cccc(C(=O)Nc4nc5ccccc5s4)c3C2)nc1C(=O)O (centres unmarked) [Compound 102] B (50% ≤ Ymin < 70%)

Name the recorded Ymin (6 h) of the molecule listed here: Cc1c(OCCCN2C[C@@H](C)N(CC(=O)Nc3cccc4c(C5CCC(=O)NC5=O)nn(C)c34)[C@@H](C)C2)cccc1-c1ccc(N2CCc3cccc(C(=O)Nc4nc5ccccc5s4)c3C2)nc1C(=O)O (some centres unmarked) [Compound 117a] B (50% ≤ Ymin < 70%)

Name the recorded Ymin (6 h) of the molecule listed here: Cc1c(Oc2cccc(CCCN3CCN(c4ccc5c(C6CCC(=O)NC6=O)nn(C)c5c4)CC3)c2)cccc1-c1ccc(N2CCc3cccc(C(=O)Nc4nc5ccccc5s4)c3C2)nc1C(=O)O (centres unmarked) [Compound 195] C (Ymin ≥ 70%)

Name the recorded Ymin (6 h) of the molecule listed here: Cc1c(OCCCN2CCC(CC(=O)Nc3cccc4c(C5CCC(=O)NC5=O)nn(C)c34)CC2)cccc1-c1ccc(N2CCc3cccc(C(=O)Nc4nc5ccccc5s4)c3C2)nc1C(=O)O (centres unmarked) [Compound 122] B (50% ≤ Ymin < 70%)
